As shown below, each of these molecules has a reported TGI value.
test system: SN12C renal; test: NCI tumour cell line growth inhibition, 48 h

Record NCCCCn1c(SCCc2c[nH]c3ccccc23)nnc1-c1ccc2ccccc2n1 . Reported TGI: 10.5 µM

Record CC(=C(c1ccc(OCCN2CCCCC2)cc1)c1ccc(OCCN2CCCCC2)cc1)c1ccccc1 . Reported TGI: > 21.8 µM

Record O=C(NNc1nc2cc(C(F)(F)F)ccc2n2cccc12)c1cnccn1 . Reported TGI: 2.07 µM

Record COc1cc(/C=C/C(=O)c2cnn(-c3cc(=O)[nH]c4ccc(Cl)cc34)c2C)cc(OC)c1OC . Reported TGI: 9.24 µM

* * *

system: MDA-MB-468 breast; experiment: NCI tumour cell line growth inhibition, 48 h; in the data active = GI50 below about 0.43 µM; inactive = the rest
# output must be one of active, inactive

Answered cases to consult:
C=C(C)[C@@H]1CC[C@]2(C(=O)O)CC[C@]3(C)[C@H](CC[C@@H]4[C@@]5(C)CCC(NC(=O)c6cccc(OC(C)=O)c6OC(C)=O)C(C)(C)[C@@H]5CC[C@]43C)[C@@H]12 (stereo not given in full) | active
COc1cc2ncn(-c3cc(O[C@@H](C)c4ccccc4Cl)c(C(N)=O)s3)c2cc1OC | active
COc1ccc(-c2cc(-c3ccc(Cl)cc3)nc(SCCCC(=O)NO)n2)cc1 | inactive
NCCCCn1c(SCCc2c[nH]c3ccccc23)nnc1-c1ccc2ccccc2n1 | inactive

Let us examine a further case.
Task: I'd appreciate the recorded outcome for CC(=C(c1ccc(OCCN2CCCCC2)cc1)c1ccc(OCCN2CCCCC2)cc1)c1ccccc1 from this test.
Output: inactive

* * *

test system: DU-145 prostate; assay: NCI tumour cell line growth inhibition, 48 h
As shown below, each of these compounds has a reported TGI value.
Respond numerically; units are µM and should not be typed.

NCCCCn1c(SCCc2c[nH]c3ccccc23)nnc1-c1ccc2ccccc2n1 | 12.2

Lab note: next compound to report on.
Record O=C(NNc1nc2cc(C(F)(F)F)ccc2n2cccc12)c1cnccn1 . Reported TGI: 2.44

* * *

system: MDA-MB-468 breast; experiment: NCI tumour cell line growth inhibition, 48 h
As shown below, each of these molecules has a reported TGI value.
Respond numerically; units are µM and should not be typed.

// known answers, use as guide
Cc1ccc2c(-c3ccnc(Nc4ccccc4)n3)c(-c3ccc(F)cc3)nn2n1 | 6.35
COc1cc2c(c(OC)c1OC)C(=O)CC(c1cccc(NC(=O)c3cc([N+](=O)[O-])ccc3Cl)c1)O2 (centres undefined) | 5.92
CS(=O)(=O)CCNCc1ccc(-c2ccc3ncnc(Nc4ccc(OCc5ccccc5)c(Br)c4)c3c2)o1 | 1

Record C=C(CN1CCN(c2cccc(C(F)(F)F)n2)CC1)c1ccc(C(=O)Nc2ccccc2N)cc1 . Reported TGI: 7.28

Record Cc1nc2sc(C(=O)Nc3cccc4ccccc34)c(N)c2cc1C(O)c1ccccc1 (centres undefined) . Reported TGI: 15.2

* * *

test system: IGROV1 ovarian; experiment: NCI tumour cell line growth inhibition, 48 h; in the data active = GI50 below about 0.43 µM; inactive = the rest
# output must be one of t (active), f (inactive)

Answered cases to consult:
COc1cc(/C=C/C(=O)c2cnn(-c3cc(=O)[nH]c4ccc(Cl)cc34)c2C)cc(OC)c1OC | f
COc1cc2c(c(OC)c1OC)C(=O)CC(c1cccc(NC(=O)c3cc([N+](=O)[O-])ccc3Cl)c1)O2 (centres undefined) | f

Task: I'd appreciate the recorded outcome for CC(=C(c1ccc(OCCN2CCCCC2)cc1)c1ccc(OCCN2CCCCC2)cc1)c1ccccc1 from this test.
Output: f

Task: I'd appreciate the recorded outcome for O=C(NNc1nc2cc(C(F)(F)F)ccc2n2cccc12)c1cnccn1 from this test.
Output: t

* * *

tested on: MDA-MB-468 breast; assay: NCI tumour cell line growth inhibition, 48 h
As shown below, each of these compounds has a reported TGI value.

// known answers, use as guide
C[C@@H](O)[C@H](NC(=O)N[C@@H](CC(N)=O)c1nc([C@@H](N)CO)no1)C(=O)O | > 100 µM
CCC(=O)Nc1ccccc1C#C/C=C\C#Cc1ccccc1SC | > 100 µM
O=C1CC(=O)N(C(=O)c2nn(-c3ccc(Cl)cc3)cc2O)N1 | > 66.5 µM

Lab note: next compound to report on.
Record CCOC(=O)NC1C2CC(=O)OC(O2)C1OC(C)=O (centres undefined) . Reported TGI: > 100 µM
